From: patent US6432415B1

assay: Solubility of Amlexanox in solvents and at different pH; format: physicochemical; details: in water
value_type: solubility (µg/mL)

• CC(C)c1ccc2oc3nc(N)c(C(=O)O)cc3c(=O)c2c1 = 5
